molecules and their reported DC50
Target: BRAF V600E (Homo sapiens, UniProt P15056, V600E)
Construct: endogenous C-terminal HiBiT fusion tag on BRAF V600E allele; endogenous in cells; host or cells: A375 clone 1F10 (CRISPR-Cas9 knock-in of the HiBiT tag; parental A375 from ATCC)
Sequence (P15056 whole entry V600E, the tested form may be a part): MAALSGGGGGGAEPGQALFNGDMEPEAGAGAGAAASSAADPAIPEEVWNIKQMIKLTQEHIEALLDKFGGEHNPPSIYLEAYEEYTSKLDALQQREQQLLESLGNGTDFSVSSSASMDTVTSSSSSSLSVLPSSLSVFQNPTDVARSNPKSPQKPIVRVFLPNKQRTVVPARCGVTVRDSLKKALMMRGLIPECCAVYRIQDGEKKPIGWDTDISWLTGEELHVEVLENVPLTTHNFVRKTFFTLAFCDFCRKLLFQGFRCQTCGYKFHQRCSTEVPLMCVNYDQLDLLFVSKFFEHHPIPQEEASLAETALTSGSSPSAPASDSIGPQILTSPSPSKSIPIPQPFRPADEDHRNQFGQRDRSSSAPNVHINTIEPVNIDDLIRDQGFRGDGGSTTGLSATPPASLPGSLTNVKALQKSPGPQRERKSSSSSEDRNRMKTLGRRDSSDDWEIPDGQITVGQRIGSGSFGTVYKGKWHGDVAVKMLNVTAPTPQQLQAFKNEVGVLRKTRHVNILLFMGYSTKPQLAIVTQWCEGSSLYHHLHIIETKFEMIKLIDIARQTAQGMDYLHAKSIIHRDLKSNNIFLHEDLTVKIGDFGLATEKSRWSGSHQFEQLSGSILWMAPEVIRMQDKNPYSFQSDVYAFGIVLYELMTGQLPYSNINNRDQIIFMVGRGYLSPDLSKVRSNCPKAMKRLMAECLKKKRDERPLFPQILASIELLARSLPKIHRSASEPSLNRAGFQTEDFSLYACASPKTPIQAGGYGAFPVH
Test: BRAF HiBiT degradation assay, C-terminal HiBiT-tagged BRAF V600E A375 cells (clone 1F10), Nano-Glo HiBiT Lytic assay
Type: cell-based
Settings: A375 (BRAF V600E, Class 1); DC50 at 50% degradation

# Molecule, DC50
measured = [
    ("O=C1CCC(c2ccc(N3CCC(F)(CN4CCN(c5ccc(-n6cc(-c7cc(Cl)cc(NS(=O)(=O)N8CCCC8)c7F)c(-c7ccncc7)n6)cc5)CC4)CC3)cc2)C(=O)N1 (racemic) [Compound 284]", "10 to 50 nM"),
    ("C[C@@H]1CN(c2ccc(-n3cc(-c4cc(Cl)cc(NS(=O)(=O)N5CC[C@@H](F)C5)c4F)c(-c4ccncc4)n3)cc2)CCN1CC1CCN(c2ccc([C@H]3CCC(=O)NC3=O)cc2)CC1 [Compound 317]", "< 10 nM"),
    ("CCN(C)S(=O)(=O)Nc1cc(Cl)cc(-c2cn(-c3ccc(N4CCN(CC5CCN(c6ccc([C@H]7CCC(=O)NC7=O)cc6)CC5)CC4)cc3)nc2-c2ccncc2)c1F [Compound 306]", "< 10 nM"),
    ("O=C1CCC(c2ccc(N3CCC(CN4CCN(c5ccc(-n6cc(-c7cc(Cl)cc(NS(=O)(=O)N8CCCC8)c7F)c(-c7ccncc7)n6)cn5)CC4)CC3)nc2)C(=O)N1 (racemic) [Compound 352]", "< 10 nM"),
]

--- query ---
Short answer for CCCS(=O)(=O)Nc1cccc(-c2nc(C3CCC4(CC3)CCN(C(=O)C3CCN(c5cccc6c5n(C)c(=O)n6C5CCC(=O)NC5=O)CC3)CC4)sc2-c2ccnc(N)n2)c1F (racemic) [Compound 251] : DC50 was < 10 nM
